Entries and their peptide exchange yield values follow.
# assayed_target: T1, HLA-A*02:01 (human)
# T1 construct: Peptide-receptive MHC monomer made by UV cleavage of a UV-sensitive peptide
# assay_method_text: UV-ligand exchange, anti-b2m ELISA; exchange yield grade (+ >10%, ++ >20%, +++ >50, ++++ >75%)

Below, each entry is followed by its recorded peptide exchange yield result.
RLWQIQHHL 50 to 75%
KLHEIYIQA > 75%
KMILKMVQL 10 to 20%
YLLPSVVLL > 75%
YQDSWFQQL 50 to 75%

Prompt: Specify peptide exchange yield for SQTGFVVLV and stop.
Response: 20 to 50%

Prompt: Specify peptide exchange yield for RLASRPLLL and stop.
Response: 50 to 75%

Prompt: Specify peptide exchange yield for ELMPRVYTL and stop.
Response: 50 to 75%

Entry source: patent US20180291082A1
